Listed molecules paired with reported NF-kB SEAP reporter activity
System: RAW-Dual
TEST: NF-kB SEAP reporter activity, fold change vs agonist alone; cytotoxicity flag (confluency mask): cytotoxic (confluency <70% of control); higher = enhanced NF-kB activity
CONDITION CONTEXT: agonist: Pam3CSK4 (TLR2/1) 0.1 ug/mL
The full ranking holds about 2,900 compounds; the median of “NF-kB SEAP reporter activity, fold change vs agonist alone” is about 0.99, and the highest 2% start at about 2.6. Many of the other results were omitted from the sample, so the highest values are more common in it than they were.

Here is how some molecules turned out for NF-kB SEAP reporter activity.
{"MOLECULE": "CCCCCCCCCCCCCCCCCC[N+](C)(C)C (library stock concentration (final ~1000-fold dilution): 10 mM)", "ASSAY VALUE": 0.534}
{"MOLECULE": "C=C(C)C1CCC2(C(=O)O)CCC3(C)C(CCC4C5(C)CCC(OC(=O)CC(C)(C)C(=O)O)C(C)(C)C5CCC43C)C12 (stereo not given) (library stock concentration (final ~1000-fold dilution): 10 mM)", "ASSAY VALUE": 0.532}
{"MOLECULE": "CC1OC(OC2CCC3(C)C(CCC4(C)C3C=CC35OCC6(CCC(C)(C)CC63)C(O)CC45C)C2(C)CO)C(O)C(OC2OC(CO)C(O)C(O)C2O)C1O (stereo not given) (library stock concentration (final ~1000-fold dilution): 10 mM)", "ASSAY VALUE": 0.143}
{"MOLECULE": "COc1ccc(N2C(=O)/C(=C/c3ccc([N+](=O)[O-])s3)SC2=S)cc1 (library stock concentration (final ~1000-fold dilution): 10 mM)", "ASSAY VALUE": 0.382}

Let us examine a further case.
Problem: Entry Cl.Nc1ncccc1-c1nc2ccc(-c3ccccc3)nc2n1-c1ccc(C2(N)CCC2)cc1 (library stock concentration (final ~1000-fold dilution): 10 mM) needs its NF-kB SEAP reporter activity filled in; supply it.
Result: 1.38

====

Test system: RAW-Dual
TEST: NF-kB SEAP reporter activity, fold change vs agonist alone; cytotoxicity flag (confluency mask): not cytotoxic; higher = enhanced NF-kB activity
CONDITION CONTEXT: agonist: ODN 1826 (TLR9) 0.5 ug/mL
In all, about 2,900 compounds were measured (“NF-kB SEAP reporter activity, fold change vs agonist alone”: median about 0.99, highest 2% from about 2.6 on). For the sample, the highest values were picked, then their nearest neighbours and some compounds at random.
QUANTITY MEASURED: NF-kB SEAP reporter activity
Just the number.

{"COMPOUND": "O=c1cc(-c2ccc(O)cc2)oc2cccc(O)c12 (library stock concentration (final ~1000-fold dilution): 10 mM)", "ASSAY VALUE": 1.15}
{"COMPOUND": "COc1ccc(CCC(=O)N(c2nccc3ccccc23)C2CCCNC2)cc1 (stereo not given) (library stock concentration (final ~1000-fold dilution): 10 mM)", "ASSAY VALUE": 0.84}
{"COMPOUND": "CC(C)N1CCN(Cc2cnc(-c3cc(-c4cccc5[nH]ccc45)cc4[nH]ncc34)o2)CC1 (library stock concentration (final ~1000-fold dilution): 10 mM)", "ASSAY VALUE": 0.196}

Problem: Using the record for CC1COCCN1c1cc(-c2ccnn2C)c2ccnc(-c3ccn[nH]3)c2n1.Cl (stereo not given) (library stock concentration (final ~1000-fold dilution): 10 mM) , state its measured NF-kB SEAP reporter activity.
Result: 0.957

Problem: Please give the documented NF-kB SEAP reporter activity of CCOc1ccc(CC2NC(=O)CCSSCC(C(=O)N3CCCC3C(=O)NC(CCCN)C(=O)NCC(N)=O)NC(=O)C(CC(N)=O)NC(=O)C(C(C)O)NC(=O)C(C(C)CC)NC2=O)cc1 (stereo not given) (library stock concentration (final ~1000-fold dilution): 10 mM water)
Result: 1.15
